Form field: normalized growth (one value per entry).
# Test summary: chemical genetic growth profiling, strain panel (AID 1159580);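 further: tested at 20 µM; growth read once vehicle control cultures reached saturation at 30 °C; 1 = growth at the plate median or of vehicle wells; lower values mean less growth of the strain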
# Condition context: S. cerevisiae deletion strains, growth OD, locus YLR262C, strain YPT6, hits give low values
The campaign covered roughly 5,500 compounds. About 2,000 (36%) were called active. Another 18% or so got no clear call; they are omitted. Some of the results follow.
Could you keep your reply to the number by itself?

INSERT INTO results (compound, experimental_result) VALUES
  ('O=C1/C(=C/c2ccc(Cl)cc2)COc2ccc(F)cc21', 0.528),
  ('CNC(=O)Oc1ccc2c(c1)[C@]1(C)CCN(C)[C@@H]1N2C', 1.19);

Problem: Which normalized growth value belongs to `N#Cc1csc([N+](=O)[O-])c1` ?
Solution: 0.795

Problem: Next up: `CC(=O)c1ccc(-c2ccc(Cl)c(Cl)c2)o1`
Solution: 0.264

Problem: Next up: `CCC(=O)Nc1ccc(Cl)c(Cl)c1`
Solution: 0.978

Problem: Next up: CC(CCC(=O)O)[C@H]1CCC2C3CC[C@@H]4C[C@H](O)CC[C@]4(C)C3C[C@H](O)[C@@]21C (some centres not stated)
Solution: 0.925

###

# Test summary: chemical genetic growth profiling, strain panel (AID 1159580);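 further: tested at 20 µM; growth read once vehicle control cultures reached saturation at 30 °C; 1 = growth at the plate median or of vehicle wells; lower values mean less growth of the strain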
# Condition context: S. cerevisiae deletion strains, growth OD, locus YLR262C, strain YPT6
Among all 5,500 compounds or so, about 2,000 (36%) were called active. About 18% were inconclusive and are not listed. No stated cut-off is given here; in the data, active means normalized growth mostly below about 0.91 (no sharp cut-off); inconclusive means no clear call, values can overlap the other calls; inactive means mostly above about 0.92. The list shows a part of the results.
Permitted responses: yes for active, no for inactive

See these solved cases before continuing.
INSERT INTO assay_data (compound, assigned_label) VALUES
  ('C=C1C(C2(C)C=CC(=O)C(C)(C)C2CC(=O)OC)CC[C@@]2(C)[C@H](c3ccoc3)OC(=O)C3OC132 (stereo partly drawn)', 'no'),
  ('CN(C)CCOC(=O)COc1ccc(Cl)cc1', 'yes'),
  ('COc1ccc(C(=O)C2CCNCC2)cc1', 'no'),
  ('O=[N+]([O-])c1cccc(-c2csc(Nc3ccccc3Cl)n2)c1', 'yes'),
  ('COc1ccc(C(=O)CC(=O)c2ccc(C(C)(C)C)cc2)cc1', 'no');

Problem: Recorded test outcome, item `O=S(=O)(Nc1ccc(Oc2ccc(Cl)cc2)cc1)c1ccccc1`
Solution: yes

Problem: Next up: `C=C1[C@H]2CC[C@@]3(C)[C@H](c4ccoc4)OC(=O)C[C@]13O[C@H]1C[C@H](O)C(C)(C)[C@H](CC(=O)OC)[C@]12C`
Solution: no

Problem: Next up: `CCCC(C(=O)OCCN(CC)CC)(c1ccccc1)c1ccccc1`
Solution: no

Problem: Next up: `O=C(NCc1nc(-c2ccc(C(F)(F)F)cc2)no1)Nc1ccc(F)cc1F`
Solution: no

Problem: Next up: `Cc1cc(NS(=O)(=O)c2ccc(NS(=O)(=O)c3ccc(Cl)cc3)cc2)no1`
Solution: no

Problem: Next up: O=C(O)CC(CC(=O)Nc1ccc(I)cc1F)c1ccc(C(F)(F)F)cc1 (stereo not drawn)
Solution: no

Problem: Next up: CN(C)CCOC(=O)C(c1ccccc1)C1(O)CCCC1 (stereo not drawn)
Solution: no

Problem: Next up: Cc1cc(C)cc(OCC2CNC(=O)O2)c1 (stereo not drawn)
Solution: no

Problem: Next up: `FC(F)(F)c1cc(-n2c(CCc3nc(-c4ccc(Cl)cc4)no3)n[nH]c2=S)cc(C(F)(F)F)c1`
Solution: no

Problem: Next up: `CCN(CC)CCOC(=O)C(c1ccccc1)c1ccccc1`
Solution: no

Problem: Next up: `CN(C(=O)CN(CCO)CC(=O)N(C)C(C)(C)Cc1ccccc1)C(C)(C)Cc1ccccc1`
Solution: no

Problem: Next up: `COc1cc(CC/C(C)=N/O)ccc1OCc1ccc(Cl)cc1Cl`
Solution: yes

Problem: Next up: CC(CCC(=O)O)[C@H]1CCC2C3C(C[C@H](O)[C@@]21C)[C@@]1(C)CC[C@@H](O)C[C@H]1C[C@H]3O (stereo partly drawn)
Solution: no
